Values compiled from patent US7648983B2.

measured on: human BACE(1-460):Fc (Homo sapiens)
Construct: made in house; host or cells: HEK293 cells (transient, pJB02 vector), purified from conditioned media by Protein A
Sequence (P56817 22-460): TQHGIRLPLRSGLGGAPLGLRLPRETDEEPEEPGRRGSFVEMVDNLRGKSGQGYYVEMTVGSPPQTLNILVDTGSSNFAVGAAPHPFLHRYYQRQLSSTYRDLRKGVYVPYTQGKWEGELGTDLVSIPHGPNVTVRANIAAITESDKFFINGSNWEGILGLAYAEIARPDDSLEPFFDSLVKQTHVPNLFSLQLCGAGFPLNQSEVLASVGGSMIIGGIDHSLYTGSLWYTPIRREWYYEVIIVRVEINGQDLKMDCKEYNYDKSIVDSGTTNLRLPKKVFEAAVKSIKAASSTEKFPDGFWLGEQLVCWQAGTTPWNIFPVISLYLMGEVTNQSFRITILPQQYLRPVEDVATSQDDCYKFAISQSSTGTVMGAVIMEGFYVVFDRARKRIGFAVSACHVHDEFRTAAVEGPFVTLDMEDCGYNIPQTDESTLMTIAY
method notes: BACE FRET assay
Format: biochemical
experimental context: Table 29; comparator of WO 2007/049532 and enantiomers
Exercise: state measured IC50 for each of the compounds provided.

Item C[C@]1(c2ccc(-c3ccccc3)cc2)CCSC(N)=N1 [reference compound] has what recorded IC50? > 100 µM

What about this compound? C[C@@]1(c2ccc(-c3ccccc3)cc2)CCSC(N)=N1 [reference compound] 28 µM

What about this compound? CC1(c2ccc(-c3ccccc3)cc2)CCSC(N)=N1 (stereo not drawn) [reference compound] 116 µM
